Target: T1, LexA (DinR) wild type (Bacillus subtilis, UniProt P31080 1-205)
T1 sequence: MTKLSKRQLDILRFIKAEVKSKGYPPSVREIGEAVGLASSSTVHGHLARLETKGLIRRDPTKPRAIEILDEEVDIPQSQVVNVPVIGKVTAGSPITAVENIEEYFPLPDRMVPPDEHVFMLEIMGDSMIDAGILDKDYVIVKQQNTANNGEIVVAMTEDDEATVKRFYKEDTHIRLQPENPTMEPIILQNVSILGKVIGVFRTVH
Assay: competition EMSA
reported property: pKi
One number for each entry, as −log10 of the molar value.

I am curious: what pKi value has been reported for recA op C1G (dsDNA) DNA 1: GGGGGGGGAATATGCGTTCGCCCCCC DNA 2: GGGGGGCGAACGCATATTCCCCCCCC ?
7.28
